Hello, the source for this data is the supplement of paper PMC10065799, in case you need it.

# Assayed system: c-Src SH2;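 note: peptide library displayed on the E. coli surface as eCPX fusions, selected cells deep-sequenced, score is each peptide's frequency after selection divided by its frequency in the input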
# Procedure details: SH2 binding enrichment of the phosphorylated peptide, bacterial display (enrichment ratio); higher = better substrate or ligand; peptides without Tyr show the background
Outcome label depends on SH2 binding enrichment relative to 0.6: at/above gives Condition met, below gives Condition not met.

Take a look at these entries with their results.
Record sequence	Assigned class
TIWDSYTTNKV [GNB1_Y85_I80T]	Condition not met
QGLMPYGQPRP [SRRT_Y798]	Condition not met
LRRFIYRPPDQ [OTOF_Y1231_R1236Q]	Condition not met
FKDVTYLKEEK [UBE3A_Y127_T129K]	Condition met
KPGLVYNKVNP [SPRED3_Y72]	Condition met

Reported SH2 binding enrichment at or above 0.6? FFSSEYHFVGG [CTSC_Y345_YF]
Condition met

Reported SH2 binding enrichment at or above 0.6? RNESFYDTFST [EFCAB3_Y372]
Condition not met

Reported SH2 binding enrichment at or above 0.6? IEDPYYGNDSD [ACP1_Y133]
Condition met

Reported SH2 binding enrichment at or above 0.6? CVAARYMDVKG [WFIKKN2_Y93]
Condition met
